Cited source: the supplement of paper PMC10567573

B1: ZNF277 (parent)
chain: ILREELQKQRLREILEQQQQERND

# Variants of: B1
# ASSAY_OVERVIEW: protein stability index of a GFP-peptide fusion (GPS, HEK-293T) (PSI 1-6); higher = more stable;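 also: lentivirally expressed fusions sorted by FACS into six bins by GFP to DsRed ratio, PSI derived from sequencing read proportions per bin multiplied by bin number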
# REPORTED_CONDITIONS: c terminus: a fixed tail appended
Consider the following variants; for each one, report its protein stability index.
Number only, no unit.

[ask] So what's the measured protein stability index for this one? R3M
[reply] 3.68

[ask] Given Q9F , state its recorded protein stability index.
[reply] 4.12

[ask] # query: protein stability index of entry Q20P
[reply] 4.17

[ask] Query: protein stability index; subject: Q18F
[reply] 4.37

[ask] I would be grateful if you could share the reported protein stability index for D24G .
[reply] 3.77

[ask] Recorded protein stability index for L15V , please?
[reply] 4.37

[ask] Consider the variant shown here: N23W What is its recorded protein stability index?
[reply] 3.22

[ask] Which protein stability index value is on record for Q20W ?
[reply] 3.18

[ask] protein stability index lookup needed for Q17W , thanks.
[reply] 3.49

[ask] Would you kindly share the measured protein stability index for Q20R ?
[reply] 4.41

[ask] So what's the measured protein stability index for this one? L2N
[reply] 5.57

[ask] Look at this variant and give its reported protein stability index. D24N
[reply] 4.08

[ask] What value of protein stability index has been reported for the following variant? Q19K
[reply] 3.7

[ask] # input variant: D24T ; wanted: its protein stability index
[reply] 4.01

[ask] Quick one: protein stability index of R12W ?
[reply] 3.67

[ask] So what's the measured protein stability index for this one? R10D
[reply] 5.47

[ask] Item Q20K has what recorded protein stability index?
[reply] 4.51

[ask] Look at this variant and give its reported protein stability index. Q19D
[reply] 4.4

[ask] Which value of protein stability index has been reported for N23D in the records?
[reply] 4.96

[ask] Bench note: what protein stability index did R3G show?
[reply] 5.05

[ask] Please report the recorded protein stability index for Q7M .
[reply] 3.74

[ask] Report protein stability index for L15G please.
[reply] 4.94
